# MEASUREMENT TARGET: T1, Recombinant purified human PD-1 protein, residues Leu25-Thr168, with a C-terminal 6-His tag (Homo sapiens, UniProt Q15116)
# T1 construct: programmed cell death protein 1 (PD-1), human, residues Leu25-Thr168; also called programmed cell death protein 1; PD-1-His monomer; source: bought: R&D Systems (catalog# 8986-PD, lot# DDJM0417041)
# T1 sequence (Q15116 25-168): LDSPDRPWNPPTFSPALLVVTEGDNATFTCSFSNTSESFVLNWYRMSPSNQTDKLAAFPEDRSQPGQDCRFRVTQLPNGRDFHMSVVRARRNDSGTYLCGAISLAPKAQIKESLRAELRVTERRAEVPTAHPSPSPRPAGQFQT
# METHOD SUMMARY: SPR; Biacore 8K, CMD-P chip (flat); mAb captured on amine-coupled goat anti-human IgG Fc, PD-1-His monomer as analyte (100 nM top, 3-fold dilutions), 1200 s dissociation; 25 C, HBS-EP+ pH 7.4; 1:1 Langmuir fit, apparent constants
# CONDITION INFO: both partners purified
RESULT TYPE: kon (M⁻¹ s⁻¹)
Please reply with the bare figure in M⁻¹ s⁻¹ and do not write the unit itself.

Ask: So what's the measured kon for this one? mAb04 (antibody, V domains shown, IgG4; also called analog of retifanlimab; retifan; source: HEK293 suspension cells, cotransfected, purified (Protein A)) VH: QVQLVQSGAEVKKPGASVKVSCKASGYSFTSYWMNWVRQAPGQGLEWIGVIHPSDSETWLDQKFKDRVTITVDKSTSTAYMELSSLRSEDTAVYYCAREHYGTSPFAYWGQGTLVTVSS VL: EIVLTQSPATLSLSPGERATLSCRASESVDNYGMSFMNWFQQKPGQPPKLLIHAASNQGSGVPSRFSGSGSGTDFTLTISSLEPEDFAVYFCQQSKEVPYTFGGGTKVEIK
Result: 608000

Ask: Fill in: kon of mAb16 (antibody, V domains shown, IgG4; also called analog of dostarlimab; dostar; source: HEK293 suspension cells, cotransfected, purified (Protein A)) VH: EVQLLESGGGLVQPGGSLRLSCAASGFTFSSYDMSWVRQAPGKGLEWVSTISGGGSYTYYQDSVKGRFTISRDNSKNTLYLQMNSLRAEDTAVYYCASPYYAMDYWGQGTTVTVSS VL: DIQLTQSPSFLSAYVGDRVTITCKASQDVGTAVAWYQQKPGKAPKLLIYWASTLHTGVPSRFSGSGSGTEFTLTISSLQPEDFATYYCQHYSSYPWTFGQGTKLEIK is ___
Result: 279000

Ask: What value of kon has been recorded for this entry: mAb23 (antibody, V domains shown, IgG4; also called analog of cemiplimab; cemip; source: HEK293 suspension cells, cotransfected, purified (Protein A)) VH: EVQLLESGGVLVQPGGSLRLSCAASGFTFSNFGMTWVRQAPGKGLEWVSGISGGGRDTYFADSVKGRFTISRDNSKNTLYLQMNSLKGEDTAVYYCVKWGNIYFDYWGQGTLVTVSS VL: DIQMTQSPSSLSASVGDSITITCRASLSINTFLNWYQQKPGKAPNLLIYAASSLHGGVPSRFSGSGSGTDFTLTIRTLQPEDFATYYCQQSSNTPFTFGPGTVVDFR
Result: 183000

Ask: kon for mAb17 (antibody, V domains shown, IgG4; also called analog of camrelizumab; camre; source: HEK293 suspension cells, cotransfected, purified (Protein A)) VH: EVQLVESGGGLVQPGGSLRLSCAASGFTFSSYMMSWVRQAPGKGLEWVATISGGGANTYYPDSVKGRFTISRDNAKNSLYLQMNSLRAEDTAVYYCARQLYYFDYWGQGTTVTVSS VL: DIQMTQSPSSLSASVGDRVTITCLASQTIGTWLTWYQQKPGKAPKLLIYTATSLADGVPSRFSGSGSGTDFTLTISSLQPEDFATYYCQQVYSIPWTFGGGTKVEIK ?
Result: 192000

Ask: Which kon value is on record for mAb03 (antibody, V domains shown, IgG4; also called analog of tislelizumab; tisle; source: HEK293 suspension cells, cotransfected, purified (Protein A)) VH: QVQLQESGPGLVKPSETLSLTCTVSGFSLTSYGVHWIRQPPGKGLEWIGVIYADGSTNYNPSLKSRVTISKDTSKNQVSLKLSSVTAADTAVYYCARAYGNYWYIDVWGQGTTVTVSS VL: DIVMTQSPDSLAVSLGERATINCKSSESVSNDVAWYQQKPGQPPKLLINYAFHRFTGVPDRFSGSGYGTDFTLTISSLQAEDVAVYYCHQAYSSPYTFGQGTKLEIK ?
Result: 432000
